Reference source: paper PMC6150229

Test: in vivo
Conditions: male, Sprague-Dawley, rat, po, 8 g/kg, Cmax
We label by threshold. Values of Cmax strictly beneath 0.9 ng/mL are Fulfilled. Values of 0.9 ng/mL and up are Not fulfilled.

>>> cat("Cc1cccc2c3c(ccc12)C1=C(C(=O)C3=O)[C@@H](C)CO1 [dihydrotanshinone I]")
"Fulfilled"
>>> cat("C=C[C@H]1[C@H](O[C@@H]2O[C@H](CO)[C@@H](O)[C@H](O)[C@H]2O)OC=C2C(=O)OCC[C@H]21 [sweroside]")
"Not fulfilled"
>>> cat("O=C1C[C@@H](c2ccc(O)cc2)Oc2cc(O)ccc21")
"Fulfilled"

Now, please, on to the next compound.
Query: In plain terms, does Cc1coc2c1C(=O)C(=O)c1c-2ccc2c(C)cccc12 come in under 0.9 ng/mL for Cmax?
Result: Fulfilled

* * *

Assay: in vivo
Conditions: male, Sprague-Dawley, rat, po, 8 g/kg, AUC0–∞, sham group (SG) rats, oral administration of QSKL, plasma, mean ± SD, n = 6
Property: AUC(0-inf) (ng·h/mL)
Enter your answer as a number in ng·h/mL; do not include the unit.

>>> reading("O=C(/C=C/c1ccc(O[C@@H]2O[C@H](CO)[C@@H](O)[C@H](O)[C@H]2O)cc1)c1ccc(O)cc1O")
1.64

Query: Report AUC(0-inf), nothing else, for this compound: COC[C@@]12CC[C@H](OC)[C@]34C(C([C@H](OC)[C@H]13)[C@]1(OC(C)=O)[C@H]3[C@@H](OC(=O)c5ccccc5)[C@](O)(C[C@H]34)[C@@H](OC)[C@@H]1O)N(C)C2
Result: 0.967

Query: Report AUC(0-inf), nothing else, for this compound: COCC12CN(C)C3C4C(OC)C1C3(C(OC)CC2O)C1CC2(O)C(OC)C(O)C4(O)C1C2OC(=O)c1ccccc1 (stereo not shown)
Result: 8.3

Query: Report AUC(0-inf), nothing else, for this compound: COCC12CCC(OC)C34C5CC6(O)C(OC)C(O)C(O)(C5C6OC(=O)c5ccccc5)C(C(OC)C13)C4N(C)C2 (stereo not shown)
Result: 1.78

* * *

Test: Pharmacokinetic study in sham and myocardial ischemia model rats after a single oral dose of QSKL (UHPLC-psMS/MS of plasma, non-compartmental analysis)
Conditions: male, Sprague-Dawley, rat, plasma, po, 8 g/kg, MRT, model group (MG, myocardial ischemia) rats, oral administration of QSKL, plasma, mean ± SD, n = 6
Rule: MRT under 20 h gives label 0, otherwise label 1.

Solved cases below.
>>> cat("COc1ccc(-c2coc3cc(O)ccc3c2=O)cc1O")
"label 0"
>>> cat("Cc1coc2c1C(=O)C(=O)c1c-2ccc2c1CCCC2(C)C")
"label 1"
>>> cat("O=C(/C=C/c1ccc(O)cc1)c1ccc(O)cc1O")
"label 0"

Query: Decide: MRT of CC1(C)[C@@H](O[C@H]2O[C@H](C(=O)O)[C@@H](O)[C@H](O)[C@H]2O[C@@H]2O[C@H](C(=O)O)[C@@H](O)[C@H](O)[C@H]2O)CC[C@]2(C)[C@H]3C(=O)C=C4[C@@H]5C[C@@](C)(C(=O)O)CC[C@]5(C)CC[C@@]4(C)[C@]3(C)CC[C@@H]12 >= 20 h?
Result: label 1

Query: Decide: MRT of C[C@]1(OC(=O)/C=C/c2ccccc2)C[C@@H](O)[C@]2(O)C=CO[C@@H](O[C@@H]3O[C@H](CO)[C@@H](O)[C@H](O)[C@H]3O)[C@@H]21 [harpagoside] >= 20 h?
Result: label 0

Query: Decide: MRT of CC1(C)[C@@H](O)CC[C@]2(C)[C@H]3C(=O)C=C4[C@@H]5C[C@@](C)(C(=O)O)CC[C@]5(C)CC[C@@]4(C)[C@]3(C)CC[C@@H]12 >= 20 h?
Result: label 1

Query: Decide: MRT of COc1ccc(-c2coc3cc(O)ccc3c2=O)cc1 >= 20 h?
Result: label 0

Query: Decide: MRT of COC(=O)C1=CO[C@@H](O[C@@H]2O[C@H](CO)[C@@H](O)[C@H](O)[C@H]2O)[C@@H]2[C@H](C)O[C@@H](O)C[C@H]12 [morroniside] >= 20 h?
Result: label 1

* * *

Assay: in vivo
Conditions: male, Sprague-Dawley, rat, po, 8 g/kg, Tmax
Listed below: Tmax values for each entry.
Enter your answer as a number in h; do not include the unit.

Some solved entries appear below for comparison.
>>> reading("Cc1coc2c1C(=O)C(=O)c1c-2ccc2c(C)cccc12")
8
>>> reading("O=C1C[C@@H](c2ccc(O[C@@H]3O[C@H](CO)[C@@H](O)[C@H](O)[C@H]3O)cc2)Oc2cc(O)ccc21")
0.29
>>> reading("Cc1cccc2c3c(ccc12)C1=C(C(=O)C3=O)[C@@H](C)CO1 [dihydrotanshinone I]")
8

Query: Report Tmax, nothing else, for this compound: C=C[C@H]1[C@H](O[C@@H]2O[C@H](CO)[C@@H](O)[C@H](O)[C@H]2O)OC=C2C(=O)OCC[C@H]21 [sweroside]
Result: 1.58

Query: Report Tmax, nothing else, for this compound: O=c1cc(-c2ccc(O)c(O)c2)oc2cc(O[C@@H]3O[C@H](CO)[C@@H](O)[C@H](O)[C@H]3O)cc(O)c12 [luteoloside]
Result: 0.5

* * *

Details: male, Sprague-Dawley, rat, in vivo, po, 8 g/kg
Listed below: AUC0–t values for each entry.
Enter your answer as a number in ng·h/mL; do not include the unit.

>>> reading("Cc1coc2c1C(=O)C(=O)c1c-2ccc2c(C)cccc12")
4.54
>>> reading("O=C1C[C@@H](c2ccc(O[C@@H]3O[C@H](CO)[C@@H](O)[C@H](O)[C@H]3O)cc2)Oc2cc(O)ccc21")
7.66
>>> reading("C[C@H]1COC2=C1C(=O)C(=O)c1c2ccc2c1CCCC2(C)C")
10.2

Query: Report AUC0–t, nothing else, for this molecule: C=C[C@H]1[C@H](O[C@@H]2O[C@H](CO)[C@@H](O)[C@H](O)[C@H]2O)OC=C2C(=O)OCC[C@H]21 [sweroside]
Result: 247

Query: Report AUC0–t, nothing else, for this molecule: O=C1C[C@@H](c2ccc(O)cc2)Oc2cc(O)ccc21
Result: 2.53

Query: Report AUC0–t, nothing else, for this molecule: O=c1cc(-c2ccc(O)c(O)c2)oc2cc(O[C@@H]3O[C@H](CO)[C@@H](O)[C@H](O)[C@H]3O)cc(O)c12 [luteoloside]
Result: 0.493

Query: Report AUC0–t, nothing else, for this molecule: Cc1cccc2c3c(ccc12)C1=C(C(=O)C3=O)[C@@H](C)CO1 [dihydrotanshinone I]
Result: 4.67

* * *

Assay: in vivo
Conditions: male, Sprague-Dawley, rat, po, 8 g/kg, AUC0–t
Property: AUC(0-t) (ng·h/mL)
Enter your answer as a number in ng·h/mL; do not include the unit.

Some solved entries appear below for comparison.
>>> reading("O=c1cc(-c2ccc(O)c(O)c2)oc2cc(O[C@@H]3O[C@H](CO)[C@@H](O)[C@H](O)[C@H]3O)cc(O)c12 [luteoloside]")
0.406
>>> reading("O=C1C[C@@H](c2ccc(O[C@@H]3O[C@H](CO)[C@@H](O)[C@H](O)[C@H]3O)cc2)Oc2cc(O)ccc21")
6.01
>>> reading("Cc1coc2c1C(=O)C(=O)c1c-2ccc2c(C)cccc12")
3.62
>>> reading("Cc1cccc2c3c(ccc12)C1=C(C(=O)C3=O)[C@@H](C)CO1 [dihydrotanshinone I]")
4.99
>>> reading("O=C1C[C@@H](c2ccc(O)cc2)Oc2cc(O)ccc21")
2.11
>>> reading("C=C[C@H]1[C@H](O[C@@H]2O[C@H](CO)[C@@H](O)[C@H](O)[C@H]2O)OC=C2C(=O)OCC[C@H]21 [sweroside]")
210

Let's switch to this compound now.
Query: Report AUC(0-t), nothing else, for this compound: C[C@H]1COC2=C1C(=O)C(=O)c1c2ccc2c1CCCC2(C)C
Result: 8.77

* * *

Listed below: MRT values for each entry.
Experiment: in vivo
Conditions: male, Sprague-Dawley, rat, po, 8 g/kg, MRT, sham group (SG) rats, oral administration of QSKL, plasma, mean ± SD, n = 6
Enter your answer as a number in h; do not include the unit.

Query: Report MRT, nothing else, for this molecule: COCC12CCC(OC)C34C5CC6(O)C(OC)C(O)C(O)(C5C6OC(=O)c5ccccc5)C(C(OC)C13)C4N(C)C2 (stereo not shown)
Result: 22.7

Query: Report MRT, nothing else, for this molecule: COC[C@@]12CC[C@H](OC)[C@]34C(C([C@H](OC)[C@H]13)[C@]1(OC(C)=O)[C@H]3[C@@H](OC(=O)c5ccccc5)[C@](O)(C[C@H]34)[C@@H](OC)[C@@H]1O)N(C)C2
Result: 11.7

Query: Report MRT, nothing else, for this molecule: O=C(/C=C/c1ccc(O[C@@H]2O[C@H](CO)[C@@H](O)[C@H](O)[C@H]2O)cc1)c1ccc(O)cc1O
Result: 10.5

Query: Report MRT, nothing else, for this molecule: COCC12CN(C)C3C4C(OC)C1C3(C(OC)CC2O)C1CC2(O)C(OC)C(O)C4(O)C1C2OC(=O)c1ccccc1 (stereo not shown)
Result: 20.1
